// provenance: patent US20230265151A1

Biological target: T1, human GIP receptor (human, UniProt P48546 22-466)
T1 sequence (looked up): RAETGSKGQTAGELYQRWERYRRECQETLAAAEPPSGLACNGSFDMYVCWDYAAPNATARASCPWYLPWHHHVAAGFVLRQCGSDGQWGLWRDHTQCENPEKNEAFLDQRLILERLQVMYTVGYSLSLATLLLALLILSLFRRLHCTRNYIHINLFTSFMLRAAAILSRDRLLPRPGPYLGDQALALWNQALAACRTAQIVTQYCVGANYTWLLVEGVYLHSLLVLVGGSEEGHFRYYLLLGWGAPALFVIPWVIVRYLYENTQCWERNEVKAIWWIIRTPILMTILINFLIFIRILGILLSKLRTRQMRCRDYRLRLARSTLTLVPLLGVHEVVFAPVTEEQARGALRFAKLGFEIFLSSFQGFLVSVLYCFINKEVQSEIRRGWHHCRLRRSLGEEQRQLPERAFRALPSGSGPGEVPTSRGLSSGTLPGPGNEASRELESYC
Test: cell-based or functional assay
*1 amine or outer side, *2 acyl side, *3 side chain or, on linkers, in order; H or OH if unused. Where no end group is shown, it is not given here. Side-chain parts run from the residue outwards. [ ]: non-standard residue; d: D form. The star is where a group is joined. αMePhe(2-F) = C[C@](N)(Cc1ccccc1F)C(=O)O; γGlu = O=C(O)[C@H](CCC(=O)[*:2])N[*:1]; C14 diacid = O=C(O)CCCCCCCCCCCCC(=O)*; αMeY = C[C@](N)(Cc1ccc(O)cc1)C(=O)O; αMeF = C[C@](N)(Cc1ccccc1)C(=O)O; αMeL = CC(C)C[C@](C)(N)C(=O)O; Orn = NCCC[C@H](N)C(=O)O; AEEA = NCCOCCOCC(=O)O; Aib = CC(C)(N)C(=O)O
Here the recorded EC50, cAMP is given for each entry.
MEASURED METRIC: EC50, cAMP (nM)

{"BINDER": "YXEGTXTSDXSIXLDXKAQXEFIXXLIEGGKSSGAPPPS (Aib2, αMeF(2F)6, 4Pal10, αMeL13, Orn16, Aib20, D-Glu24, αMeY25, K17 and K31: K((γ-Glu)-AEEA2-CO-(CH2)12-CO2H), C-terminal NH2) [Example 41]", "MEASURED METRIC": "EC50, cAMP", "EXPERIMENTAL RESULT": 0.0108}
{"BINDER": "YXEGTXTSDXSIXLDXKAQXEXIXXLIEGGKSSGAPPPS (Aib2, αMeF(2F)6, 4Pal10, αMeL13, Orn16, Aib20, 2FPhe22, D-Glu24, αMeY25, K17 and K31: K(AEEA2-(γ-Glu)-CO-(CH2)12-CO2H), C-terminal NH2) [Example 63]", "MEASURED METRIC": "EC50, cAMP", "EXPERIMENTAL RESULT": 0.0176}
{"BINDER": "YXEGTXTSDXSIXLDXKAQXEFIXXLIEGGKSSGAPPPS (Aib2, αMeF(2F)6, OMeY10, αMeL13, Orn16, Aib20, D-Glu24, αMeY25, K17 and K31: K(AEEA2-(γ-Glu)-CO-(CH2)12-CO2H), C-terminal NH2) [Example 58]", "MEASURED METRIC": "EC50, cAMP", "EXPERIMENTAL RESULT": 0.0158}
{"BINDER": "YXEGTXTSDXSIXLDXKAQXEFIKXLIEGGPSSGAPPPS (Aib2, αMeF(2F)6, 4Pal10, αMeL13, Orn16, Aib20, αMeY25, K17 and K24: K(AEEA2-(γ-Glu)-(4-(4-tert-butylphenyl)butanoyl)), C-terminal NH2) [Example 132]", "MEASURED METRIC": "EC50, cAMP", "EXPERIMENTAL RESULT": 0.0208}
{"BINDER": "YXEGTXTSDVSIXLDXKAQXEXIXXLIEGGKSSGAPPPS (Aib2, αMeF(2F)6, αMeL13, Orn16, Aib20, αMeF22, D-Glu24, αMeY25, K17 and K31: K(AEEA2-(γ-Glu)-CO-(CH2)12-CO2H), C-terminal NH2) [Example 92]", "MEASURED METRIC": "EC50, cAMP", "EXPERIMENTAL RESULT": 0.0251}
{"BINDER": "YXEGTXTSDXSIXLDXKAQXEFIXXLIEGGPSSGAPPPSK (Aib2, αMeF(2F)6, 4Pal10, αMeL13, Orn16, Aib20, D-Glu24, αMeY25, K17 and K40: K(AEEA2-(γ-Glu)-CO-(CH2)12-CO2H), C-terminal NH2) [Example 19]", "MEASURED METRIC": "EC50, cAMP", "EXPERIMENTAL RESULT": 0.0158}
{"BINDER": "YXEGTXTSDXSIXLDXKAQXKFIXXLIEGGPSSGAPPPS (Aib2, αMeF(2F)6, 4Pal10, αMeL13, Orn16, Aib20, D-Glu24, αMeY25, K17 and K21: K(AEEA2-(γ-Glu)-(10-(4-carboxyphenoxy)decanoyl)), C-terminal NH2) [Example 127]", "MEASURED METRIC": "EC50, cAMP", "EXPERIMENTAL RESULT": 0.027}
{"BINDER": "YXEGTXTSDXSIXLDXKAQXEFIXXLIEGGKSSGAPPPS (Aib2, αMeF(2F)6, 4Pal10, αMeL13, Orn16, Aib20, D-Glu24, αMeY25, K17 and K31: K(AEEA2-(γ-Glu)-CO-(CH2)14-CH3), C-terminal NH2) [Example 7]", "MEASURED METRIC": "EC50, cAMP", "EXPERIMENTAL RESULT": 0.00327}
{"BINDER": "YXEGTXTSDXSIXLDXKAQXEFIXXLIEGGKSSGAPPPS (Aib2, αMeF(2F)6, 4Pal10, αMeL13, Orn16, Aib20, D-Glu24, αMeY25, K17 and K31: K(AEEA3-(γ-Glu)-CO-(CH2)12-CO2H), C-terminal NH2) [Example 30]", "MEASURED METRIC": "EC50, cAMP", "EXPERIMENTAL RESULT": 0.0175}
{"BINDER": "Y[Aib]EGT[αMePhe(2-F)]TSDV[Aib]I[αMeL]LD[Orn]K([AEEA-AEEA-γGlu-C14 diacid])AQ[Aib]E[αMeF]I[dE][αMeY]LIEGGK([AEEA-AEEA-γGlu-C14 diacid])SSGAPPPS-NH2 [Example 93]", "MEASURED METRIC": "EC50, cAMP", "EXPERIMENTAL RESULT": 0.0448}
{"BINDER": "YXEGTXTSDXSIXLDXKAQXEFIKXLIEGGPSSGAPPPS (Aib2, αMeF(2F)6, 4Pal10, αMeL13, Orn16, Aib20, αMeY25, K17 and K24: K(AEEA-(γ-Glu)-CO-(CH2)12-CO2H), C-terminal NH2) [Example 79]", "MEASURED METRIC": "EC50, cAMP", "EXPERIMENTAL RESULT": 0.013}
{"BINDER": "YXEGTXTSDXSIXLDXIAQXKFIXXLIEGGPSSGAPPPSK (Aib2, αMeF(2F)6, 4Pal10, αMeL13, Orn16, Aib20, D-Glu24, αMeY25, K21 and K40: K(AEEA2-(γ-Glu)-CO-(CH2)12-CO2H), C-terminal NH2) [Example 75]", "MEASURED METRIC": "EC50, cAMP", "EXPERIMENTAL RESULT": 0.0182}
{"BINDER": "YXEGTXTSDXSKXLDXKAQXEFIXXLIEGGPSSGAPPPS (Aib2, αMeF(2F)6, 4Pal10, αMeL13, Orn16, Aib20, D-Glu24, αMeY25, K12 and K17: K(AEEA2-(γ-Glu)-CO-(CH2)12-CO2H), C-terminal NH2) [Example 28]", "MEASURED METRIC": "EC50, cAMP", "EXPERIMENTAL RESULT": 0.0554}
